# Ki against D(3) dopamine receptor (Homo sapiens, UniProt P35462), merged from multiple literature sources
// units = µM; emit number, no label

# annotated cases, reported Ki shown
In [3]: df
Out[3]:
                                   compound                                    target  readoutnumber
0  CC(C)(C)c1nc(N2CCN(CCCCNC(=O)N3CCC(O)(c4ccccc4)CC3)CC2)cc(C(F)(F)F)n1  D(3) dopamine receptor (Homo sapiens, UniProt P35462)          0.027
1  O=C(NCCCCN1CCN(c2ccnc3cc(Cl)ccc23)CC1)N1CCC(c2ccccc2)CC1  D(3) dopamine receptor (Homo sapiens, UniProt P35462)         0.0879
2  CCCNCC1Cc2ccc(NS(=O)(=O)c3ccc(C(C)C)cc3)cc2C1 (stereo not shown)  D(3) dopamine receptor (Homo sapiens, UniProt P35462)         0.0074

Now consider the entry below.
Data request: API: value(readout= Ki, system= D(3) dopamine receptor (Homo sapiens, UniProt P35462), query= C=CCN1CCN(c2ccc(NS(=O)(=O)c3ccc(C(C)C)cc3)c(C)n2)CC1 )
Data returned: 0.0011

---

Here's a roundup of Ki values tested on UniProt:P35462, taken from various published works.
Write the answer as a number in nM, unit excluded.

Data request: Ki lookup needed for CCCN1CC(c2ccc(NS(=O)(=O)c3ccc(-c4cnco4)cc3)cc2)C1 , thanks.
Data returned: 7.11

Data request: Requested read-out: Ki. Entry: CCCNCc1cc2cc(NS(=O)(=O)c3ccc(OC(F)(F)F)cc3)ccc2[nH]1
Data returned: 55

Data request: Need Ki of CCCN[C@H]1CCc2cc(NS(=O)(=O)c3ccc(-c4cnco4)s3)ccc2C1 , thanks.
Data returned: 4.81

Data request: Reported Ki for NC(=O)CC(=O)N[C@H]1CC[C@H](CCN2CCN(c3noc4c(F)cc(F)cc34)CC2)CC1 : what is it?
Data returned: 5.94

Data request: I'd like to know its Ki. The compound in question is Cn1c(SCCCN2CCc3ccc(C(=O)c4cccc(F)c4)cc3C2)nnc1-c1ccccc1
Data returned: 14.9

Data request: Could you share which Ki value was measured for Cc1nc(N2CCN(CCCCNC(=O)N3CCc4[nH]c5ccc(C(F)(F)F)cc5c4C3)CC2)cc(C(C)(C)C)n1 ?
Data returned: 1020

---

Compiled Ki measurements on D(3) dopamine receptor (Homo sapiens, UniProt P35462) taken from the literature.
Give your result in nM as a bare value.

// solved cases for Ki follow
>>> print(df.to_string())
                                  molsmiles  propertyname  readoutnumber
0  CCCN1C[C@@H]2C[C@@H](c3ccc(NS(=O)(=O)c4ccc(Br)cc4)cc3)[C@@H]2C1            Ki           1.31
1  CC(=O)c1ccc2c(c1)CN(CCCSc1nnc(-c3cccnc3)n1C)CC2            Ki           18.8

Data request: Field request: Ki | item: Cc1cn(CCCCN2CCN(c3cc(C(C)C)nc(C(C)(C)C)n3)CC2)c(=O)[nH]c1=O.Cl
Data returned: 2.12

---

Compiled Ki measurements on D(3) dopamine receptor (Homo sapiens, UniProt P35462) taken from the literature.
Labelling field: enter fulfilled if recorded Ki is less than 0.05 µM. Enter not fulfilled if it equals or exceeds that cut-off.

>>> print(df.to_string())
                                   molecule                                    target  discretelabel
0  CCCN1CC(c2ccc(NS(=O)(=O)c3ccc(OC(F)(F)F)cc3)cc2)C1  D(3) dopamine receptor (Homo sapiens, UniProt P35462)      fulfilled
1  O=c1ccn(CCCCN2CCN(c3cccc(Cl)c3Cl)CC2)c(=O)[nH]1  D(3) dopamine receptor (Homo sapiens, UniProt P35462)      fulfilled
2  COc1cccnc1N1CCN(CC[C@H]2CC[C@H](NC(C)=O)CC2)CC1  D(3) dopamine receptor (Homo sapiens, UniProt P35462)      fulfilled
3  O=c1ccn(CCCCN2CCN(Cc3ccc(Cl)cc3Cl)CC2)c(=O)[nH]1  D(3) dopamine receptor (Homo sapiens, UniProt P35462)      fulfilled
4  CCCN1CC[C@@H](c2ccc(NS(=O)(=O)c3ccc(C(C)=O)cc3)cc2)C1  D(3) dopamine receptor (Homo sapiens, UniProt P35462)      fulfilled

Data request: Answer whether the molecule CC(C)(C)c1nc(N2CCN(CCCCNC(=O)N3CCN(Cc4cccc(C#N)c4)CC3)CC2)cc(C(F)(F)F)n1 has Ki strictly less than 0.05 µM
Data returned: not fulfilled

Data request: hey, is Ki for CC1(O)CCC(CC(=O)N[C@H]2CC[C@H](CCN3CCC(C(=O)c4ccc(F)cc4)CC3)CC2)CC1 (mixture of isomers) lower than 0.05 µM or not?
Data returned: not fulfilled

Data request: Find out if reported Ki for CC(C)(C)c1nc(N2CCN(CCCCNC(=O)N3CCc4ccccc43)CC2)cc(C(F)(F)F)n1 is less than 0.05 µM
Data returned: fulfilled

Data request: For CC(C)(C)c1nc(C(F)F)cc(N2CCN(CC[C@H]3CC[C@@H](NC(=O)[C@H]4CC[C@H](O)CC4)CC3)CC2)n1 , is the recorded Ki below the cut-off of 0.05 µM?
Data returned: fulfilled

Data request: Ki strictly < 0.05 µM for this molecule? CCCN1CC(c2ccc(NS(=O)(=O)c3ccc(C(C)C(F)F)cc3)cc2)C1 (stereo not shown)
Data returned: fulfilled

Data request: Here's an entry: CC(C)(C)c1nc(N2CCN(CCCCNC(=O)N3CCN(c4ccccc4Cl)CC3)CC2)cc(C(F)(F)F)n1 . Is its Ki below 0.05 µM?
Data returned: fulfilled

Data request: Determine whether this molecule shows Ki lower than 0.05 µM (ties excluded): Cc1nc(N2CCN(CCCCNC(=O)N3CCn4c(C)nnc4C3)CC2)cc(C(C)(C)C)n1
Data returned: not fulfilled

Data request: hey, is Ki for Cc1ccc2[nH]c3c(c2c1)CN(C(=O)NCCCCN1CCN(c2cc(C(F)(F)F)nc(C(C)(C)C)n2)CC1)CC3 lower than 0.05 µM or not?
Data returned: not fulfilled

---

For reference, the following Ki results for D(3) dopamine receptor (Homo sapiens, UniProt P35462) were taken from various sources.
Give your result in nM as a bare value.

A selection of reference data follows.
>>> df
                                   molecule                                    target  propertyname  readoutnumber
0  CCCN1CC[C@@H](c2ccccc2NS(=O)(=O)c2ccc(-c3cnco3)cc2)C1  D(3) dopamine receptor (Homo sapiens, UniProt P35462)            Ki           4.79
1  CN1CC[C@@H](c2ccc(NS(=O)(=O)c3ccc(OC(F)(F)F)cc3)cc2)C1  D(3) dopamine receptor (Homo sapiens, UniProt P35462)            Ki           16.4
2  O=c1nc(-c2ccccc2)ccn1CCCCN1CCN(Cc2ccc(Cl)cc2Cl)CC1  D(3) dopamine receptor (Homo sapiens, UniProt P35462)            Ki           3.16
3  CC(C)(C)c1nc(N2CCN(CCCCNC(=O)N3CCc4[nH]c5ccc(C#N)cc5c4C3)CC2)cc(C(F)(F)F)n1  D(3) dopamine receptor (Homo sapiens, UniProt P35462)            Ki           40.3

Data request: Provide value of Ki for this record tested with D(3) dopamine receptor (Homo sapiens, UniProt P35462): CC(C)(C)c1nc(N2CCN(CCCCNC(=O)N3CCN(C(c4ccccc4)c4ccc(Cl)cc4)CC3)CC2)cc(C(F)(F)F)n1 (stereo not drawn)
Data returned: 130

Data request: Provide value of Ki for this record tested with D(3) dopamine receptor (Homo sapiens, UniProt P35462): Cc1ccn(CCCCN2CCN(c3cc(C(F)(F)F)nc(C(C)(C)C)n3)CC2)c(=O)n1
Data returned: 4.4

Data request: Notebook: pull reported Ki for D(3) dopamine receptor (Homo sapiens, UniProt P35462), entry CC(C)(C)c1nc(N2CCN(CCCCNC(=O)N3CCN(c4ccccc4)C(=O)C3)CC2)cc(C(F)(F)F)n1
Data returned: 19.2

Data request: Give recorded Ki with D(3) dopamine receptor (Homo sapiens, UniProt P35462) for the following molecule: CC(C)(C)c1nc(C2CCC2)cc(N2CCN(CCCCc3nccc(O)n3)CC2)n1
Data returned: 1.1

Data request: What measured Ki is associated with COCCC(=O)N[C@H]1CC[C@H](CCN2CCN(c3noc4ccncc34)CC2)CC1 on D(3) dopamine receptor (Homo sapiens, UniProt P35462)?
Data returned: 24.3

Data request: Give Ki (D(3) dopamine receptor (Homo sapiens, UniProt P35462)) of the following molecule: CCCN1CC[C@@H](c2ccc(NS(=O)(=O)c3ccc(-n4cccn4)cc3)cc2)C1
Data returned: 2.51
